A compilation of published pIC50 results with Hepatocyte growth factor receptor (Homo sapiens).
pIC50: −log10 of the molar value.

COMPOUND: OCc1cccc(-c2ccnc3[nH]cc(Sc4ccccc4)c23)c1
OBS VALUE: ≥ 5.00
//
COMPOUND: COc1cc2ncnc(Oc3ccc(NC(=O)c4c(OC)ccn(-c5ccc(F)cc5)c4=O)cc3F)c2c2c1OCCO2
OBS VALUE: ≥ 7.30
//
COMPOUND: CCOC(=O)Nc1cccc(Cn2nc(-c3cccc(CNC(=O)CN4CCCCC4)c3)ccc2=O)c1
OBS VALUE: 6.00 to 8.00
//
COMPOUND: CC(c1ccc2nc(NC(=O)C3CC3)cn2n1)c1nnc2ccc(-c3cccc(N(C)C)c3)cn12 (centres unmarked)
OBS VALUE: > 7.52
//
COMPOUND: CC(c1ccc2ncsc2c1)c1nnc2ccc(-c3cnn(C)c3)nn12 (centres unmarked)
OBS VALUE: > 7.00

query: Sample `CNC(=O)c1ccc(-c2ccc3nnc(Sc4cc5scnc5cc4F)n3n2)cc1F` — what was its pIC50?
result: > 7.00

query: Sample `CCOc1ccn(-c2ccc(F)cc2)c(=O)c1C(=O)Nc1ccc(Oc2ccnc3cc(OCC#N)c4c(c23)OCCO4)c(F)c1` — what was its pIC50?
result: ≥ 7.30

query: Sample `Cc1ccc2nnc(Cc3ccc4ncc(-c5cc6ccccc6[nH]5)cc4c3)n2n1` — what was its pIC50?
result: > 7.00
